# system_name: T1, ECF28_1040
# T1 chain: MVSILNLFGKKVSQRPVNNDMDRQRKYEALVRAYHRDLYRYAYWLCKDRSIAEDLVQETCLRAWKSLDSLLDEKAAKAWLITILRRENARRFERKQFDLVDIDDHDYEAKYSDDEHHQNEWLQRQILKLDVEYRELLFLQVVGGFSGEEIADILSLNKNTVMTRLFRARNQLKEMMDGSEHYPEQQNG
Reported fold repression values for a set of binders
Lab note: record the figure alone, no unit after it.

>  <binder>
AS04_1609 (protein) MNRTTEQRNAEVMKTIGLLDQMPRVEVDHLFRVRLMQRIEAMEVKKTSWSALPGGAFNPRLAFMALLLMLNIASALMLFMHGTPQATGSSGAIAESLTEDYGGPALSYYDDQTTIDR

>  <value_type>
fold repression

>  <reported>
1.03

$$$$
>  <binder>
AS33_375 (protein) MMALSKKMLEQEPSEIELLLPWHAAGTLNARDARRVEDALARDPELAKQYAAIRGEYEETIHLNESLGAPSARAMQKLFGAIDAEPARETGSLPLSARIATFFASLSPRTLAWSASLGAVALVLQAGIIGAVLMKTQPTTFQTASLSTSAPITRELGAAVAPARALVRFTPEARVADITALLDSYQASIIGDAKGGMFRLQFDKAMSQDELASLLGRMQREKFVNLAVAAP

>  <value_type>
fold repression

>  <reported>
3.33

$$$$
>  <binder>
AS16_973 (protein) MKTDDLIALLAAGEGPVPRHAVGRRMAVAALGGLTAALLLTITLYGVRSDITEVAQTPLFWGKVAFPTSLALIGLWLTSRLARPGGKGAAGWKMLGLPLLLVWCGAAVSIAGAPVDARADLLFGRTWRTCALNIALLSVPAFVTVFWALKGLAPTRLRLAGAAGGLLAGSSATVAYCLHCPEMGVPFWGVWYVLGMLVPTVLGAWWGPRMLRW

>  <value_type>
fold repression

>  <reported>
1.39

$$$$

Now turn to the next binder.
IN: GET /values?readout=fold repression&item= AS15_524 (protein) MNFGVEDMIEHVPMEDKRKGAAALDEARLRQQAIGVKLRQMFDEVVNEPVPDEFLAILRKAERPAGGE
OUT: 4.67
